IC50 data for EcArgE (Escherichia coli) follow.
Unit µM implied. Number only.

O=C(O)c1ccc(B(O)O)cc1    54.1

Next:
Task: Request the reported IC50 associated with CCN(CC)c1ccc(B(O)O)cc1
Output: 50.1

====

# measured.on: EcArgE (Escherichia coli)
# Construct: The open reading frame (ORF) of the full-length ArgE protein from E. coli was amplified; made in house; host or cells: E. coli
# Sequence (P23908 whole entry): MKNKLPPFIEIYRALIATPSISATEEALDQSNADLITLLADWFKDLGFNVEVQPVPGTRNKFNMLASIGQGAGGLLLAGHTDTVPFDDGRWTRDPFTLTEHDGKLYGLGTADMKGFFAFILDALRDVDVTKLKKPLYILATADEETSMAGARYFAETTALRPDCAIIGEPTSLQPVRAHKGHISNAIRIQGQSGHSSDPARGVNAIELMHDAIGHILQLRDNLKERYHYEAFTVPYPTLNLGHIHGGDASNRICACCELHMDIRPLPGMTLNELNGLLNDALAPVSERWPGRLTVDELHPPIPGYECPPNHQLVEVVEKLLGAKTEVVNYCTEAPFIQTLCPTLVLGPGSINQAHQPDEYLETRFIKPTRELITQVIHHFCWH
# protocol.text: Ninhydrin-based ArgE enzyme assay (discontinuous, 570 nm)
# Format: biochemical
# measurement.parameters: 100 μM inhibitor, ninhydrin assay, substrate 3
# cutoff 50% applies to inhibition at 100 µM; >= gives yes, < gives no

Task: Does the reported inhibition at 100 µM for OB(O)c1ccc(Cl)cc1 fall at or above the 50% mark?
Output: yes

Task: Given C[C@H](CS)C(=O)N1CCC[C@H]1C(=O)O [Entry 1, captopril, reference compound] , state whether its inhibition at 100 µM is at least 50%.
Output: yes

Task: Record OB(O)c1ccccc1C(F)(F)F ; criterion: inhibition at 100 µM no lower than 50%. Met?
Output: no

Task: In plain terms: is recorded inhibition at 100 µM at least 50% for CS(=O)(=O)Nc1ccc(B(O)O)cc1 ?
Output: no

Task: Could you tell me if the measured inhibition at 100 µM of OB(O)c1ccc2c(c1)OCO2 reaches 50% or more?
Output: no

Task: Would you say OB(O)c1cccc(OCc2ccccc2)c1 shows inhibition at 100 µM at minimum 50%?
Output: no

Task: Given the entry OB(O)c1ccc(O)cc1 , answer whether its inhibition at 100 µM meets or surpasses 50%.
Output: no

Task: Reported inhibition at 100 µM reaches at least 50% for CCN(CC)c1ccc(B(O)O)cc1 ?
Output: yes

Task: Entry O=C(O)c1ccc(B(O)O)cc1 : is its inhibition at 100 µM no less than 50%?
Output: yes

Task: Is inhibition at 100 µM at least 50%? Consider OB(O)c1ccc2ccccc2c1
Output: no

Task: Does the molecule OB(O)c1ccc(Oc2ccc(Cl)cc2)cc1 have recorded inhibition at 100 µM that is 50% or more?
Output: yes

Task: Hello, I need to know if OB(O)c1ccc(Oc2ccc(F)cc2)cc1 has measured inhibition at 100 µM not below 50%. Thanks!
Output: no

Task: State whether the measured inhibition at 100 µM reaches 50%, counting equality as reaching it, for O=C(O)c1ccc([N+](=O)[O-])cc1
Output: yes

====

# measured.on: EcArgE (Escherichia coli)
# Construct: The open reading frame (ORF) of the full-length ArgE protein from E. coli was amplified; made in house; host or cells: E. coli
# protocol.text: Ninhydrin-based ArgE enzyme assay (discontinuous, 570 nm)
# Type: biochemical
# measurement.parameters: 100 μM inhibitor, ninhydrin assay, substrate 3
A collection of compounds and their measured inhibition at 100 µM
Express your answer in %, writing the number without its unit.

Below, each entry is followed by its recorded inhibition at 100 µM result.
CC(=O)Nc1ccc(B(O)O)cc1    24
N#Cc1ccc(B(O)O)cc1    48

Task: Query (compound): OB(O)c1ccc(Oc2ccc(OC(F)(F)F)cc2)cc1 ; field requested: inhibition at 100 µM
Output: 36

====

# measured.on: EcArgE (Escherichia coli)
# Construct: The open reading frame (ORF) of the full-length ArgE protein from E. coli was amplified; made in house; host or cells: E. coli
# protocol.text: Ninhydrin-based ArgE enzyme assay (discontinuous, 570 nm)
# Type: biochemical
# measurement.parameters: 100 μM inhibitor, ninhydrin assay, substrate 3
# Method: A discontinuous assay was performed utilizing a Techne PCR Thermal Cycler System and assays were run with a total reaction volume of 100 µL and a final enzyme concentration of 10 nM. […] The absorbance of an 80 μL aliquot was recorded at 570 nm on a BioTek Synergy 2 microplate reader. The IC50 values and kinetic constants were calculated using GraphPad Prism using non-linear regression and the Michaelis-Menten equation.
result.type: inhibition at 100 µM (%)
Return type: number; implicit unit %.

Completed entries (count: 5):
CN(C)c1ccc(C(=O)O)cc1    41
OB(O)c1ccccc1    41.9
OB(O)c1cc(C(F)(F)F)cc(C(F)(F)F)c1    0
OB(O)c1ccc(F)cc1    8.1
OB(O)c1ccc(OC(F)(F)F)cc1    25.5

Next, consider the following compound.
Task: Dear colleague, I am looking for the recorded inhibition at 100 µM of the following compound: Cc1ccc(B(O)O)cc1
Output: 59

Just for reference, paper PMC11270798 is where these values come from.
